target: T1, HLA-A24 molecule (HLA-A2402) expressed on T2-A24 cells (human); assay: HLA-A24 stabilisation on T2A24 cells, flow cytometry with anti-HLA-A24 antibody
T1 construct: whole, on cells; MHC class I molecule on T2-A24 cells
Non-standard residues stand in square brackets, D forms with d. No end group written: not given here.
metric: binding result

{"columns": ["binder", "experimental result"],
 "data": [
  ["MYTMVTPML [or7c1_277(9)]", "binds"],
  ["HYTV[code i]MNPQL (Synthetic OR7C1-derived peptide, printed HYTViMNPQL with a lower-case i) [or7c1_131(10)]", "binds"],
  ["TYAGCLSQIF (also called peptide 93(10)) [or7c1_93(10)]", "binds"],
  ["MYLVTFTGNL [or7c1_34(10)]", "binds"],
  ["FYGTGFGVYL [or7c1_251(10)]", "binds"]
]}
